Parameter IC50, tested on EPHB4 (Homo sapiens), listed per item.
Sequence (P54760 16-987, species assumed): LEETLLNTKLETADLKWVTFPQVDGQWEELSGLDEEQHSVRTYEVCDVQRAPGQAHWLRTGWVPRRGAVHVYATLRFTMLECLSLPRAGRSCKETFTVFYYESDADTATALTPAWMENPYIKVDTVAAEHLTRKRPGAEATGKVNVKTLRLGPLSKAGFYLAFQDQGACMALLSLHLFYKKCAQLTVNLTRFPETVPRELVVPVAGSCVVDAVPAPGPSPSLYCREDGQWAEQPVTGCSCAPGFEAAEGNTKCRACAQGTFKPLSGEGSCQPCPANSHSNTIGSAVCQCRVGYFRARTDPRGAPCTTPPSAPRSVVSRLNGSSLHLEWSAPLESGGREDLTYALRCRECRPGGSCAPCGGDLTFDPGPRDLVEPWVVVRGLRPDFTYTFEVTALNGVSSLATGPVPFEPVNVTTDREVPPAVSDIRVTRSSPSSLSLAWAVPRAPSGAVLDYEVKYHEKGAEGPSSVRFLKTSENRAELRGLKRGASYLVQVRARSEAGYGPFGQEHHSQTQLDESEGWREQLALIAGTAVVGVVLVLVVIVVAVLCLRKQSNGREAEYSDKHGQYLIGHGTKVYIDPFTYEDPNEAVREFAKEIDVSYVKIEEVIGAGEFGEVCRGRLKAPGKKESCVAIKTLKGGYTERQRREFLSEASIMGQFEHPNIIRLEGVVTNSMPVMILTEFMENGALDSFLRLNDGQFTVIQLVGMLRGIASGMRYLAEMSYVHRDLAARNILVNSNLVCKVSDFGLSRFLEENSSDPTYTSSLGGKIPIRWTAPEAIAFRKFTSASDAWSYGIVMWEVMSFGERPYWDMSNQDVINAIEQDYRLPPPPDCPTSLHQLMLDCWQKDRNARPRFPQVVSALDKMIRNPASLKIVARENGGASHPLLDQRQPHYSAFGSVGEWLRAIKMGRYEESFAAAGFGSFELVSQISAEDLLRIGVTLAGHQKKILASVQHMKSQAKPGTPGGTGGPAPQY

In the examples that follow, each entry is paired with its recorded IC50.
1) COc1cc(Nc2ncnc(Nc3ccc(N)cc3)n2)cc(OC)c1OC [Compound 92]
6.51 to 9.5 µM
2) COc1cc(Nc2ncnc(-c3ccccc3)n2)cc(OC)c1OC [Compound 970]
> 13.3 µM
3) COc1cc(Nc2ncnc(-n3c(Nc4ccccc4)nc4ccccc43)n2)cc(OC)c1OC [Compound 336]
> 9.58 µM
4) COc1cc(Nc2ncnc(Nc3cc(-c4cccs4)n[nH]3)n2)cc(OC)c1OC [Compound 318]
< 0.94 µM

With those in mind, consider the next compound.
The compound listed as COc1cc(Nc2ncnc(Nc3cccc(O)c3)n2)cc(OC)c1OC [Compound 78] has a reported IC50 of < 1.08 µM
